Test system: MDA-MB-231 breast
protocol summary: NCI tumour cell line growth inhibition, 48 h
Examples of compounds with documented TGI follow.
parameter measured: TGI

compound	assayed system	value reported
CCOP(=O)(OCC)/C(F)=C/c1ccc(F)cc1	MDA-MB-231 breast	> 100 µM
C=CN(C(=O)N1CCN(c2cc3c(cc2F)c(=O)c(C(=O)O)cn3C2CC2)CC1)c1nc(-c2ccc(C)cc2)cs1	MDA-MB-231 breast	> 100 µM
COC(=O)[C@]1(CCC(C)=O)C(=O)C=CN([C@H](C)c2ccccc2)[C@@H]1Cc1ccc(OC)c(OCc2ccccc2)c1I	MDA-MB-231 breast	35.7 µM
CCOC(=O)c1cn2c(n1)sc1cc([N+](=O)[O-])ccc12	MDA-MB-231 breast	> 100 µM
CC(C)C1CC(CO)(CNc2nc(N)nc(Cl)c2C=O)C1 (centres undefined)	MDA-MB-231 breast	5.14 µM
CC(=O)O[C@@H]1[C@H]2O[C@H]2[C@H]2O[C@@]2(COC(=O)c2ccccc2)[C@H]1OC(C)=O	MDA-MB-231 breast	> 100 µM
COc1ccc2c(c1)OCC1c3cc(OC)ccc3OC21 (centres undefined)	MDA-MB-231 breast	> 100 µM
Cc1ccc(CNc2ccc(Cl)cc2NCc2ccc(C)c(O)c2)cc1O	MDA-MB-231 breast	12.9 µM
O=C(NNC(=O)c1cc2ccccc2[nH]1)c1cc2ccccc2[nH]1	MDA-MB-231 breast	> 100 µM
CC(=O)OCC1OC(Sc2nc(-c3ccccc3)c(C#N)c(=O)n2C2OC(COC(C)=O)C(OC(C)=O)C(OC(C)=O)C2OC(C)=O)C(OC(C)=O)C(OC(C)=O)C1OC(C)=O (centres undefined)	MDA-MB-231 breast	> 100 µM
CC1(C)CC[C@]2(C(=O)O)CC[C@]3(C)C(=CC[C@@H]4[C@@]5(C)C/C(=C/c6cccnc6)[C@H](O)C(C)(C)[C@@H]5CC[C@]43C)[C@@H]2C1	MDA-MB-231 breast	57.3 µM
CC(=O)OC1=C(c2ccccc2)S(=O)(=O)c2ccccc21	MDA-MB-231 breast	> 100 µM
Cc1n[nH]c(C)c1-c1c(C)n[nH]c1C	MDA-MB-231 breast	4.53 µM
O=c1[nH]c2ccccc2c(=O)c2cc3ccccc3cc12	MDA-MB-231 breast	22 µM
CC12CCC(C(=Nc3ccc([N+](=O)[O-])cc3)C1=O)C2(C)C (centres undefined)	MDA-MB-231 breast	76.6 µM
CC(C)=CCN1c2ccccc2[C@@]2(CC=C(C)C)CCN(C)[C@@H]12	MDA-MB-231 breast	> 100 µM
COc1nc2c(c(=O)[nH]1)N=C(c1ccc([N+](=O)[O-])cc1)CC(c1ccccc1)N2 (centres undefined)	MDA-MB-231 breast	> 100 µM
Nc1nc(N)c2nc(CNc3ccc(C(=O)NC(CCC(=O)O)C(=O)O)cc3)cnc2n1 (centres undefined)	MDA-MB-231 breast	> 100 µM
COC(=O)c1nc2n(n1)-c1ccccc1C(=O)N(Cc1ccccc1)C2	MDA-MB-231 breast	> 100 µM

* * *

Tested on: SK-MEL-28 melanoma
protocol summary: NCI tumour cell line growth inhibition, 48 h; in the data active = GI50 below about 0.43 µM; inactive = the rest
Possible outcomes: class 1 = active, class 0 = inactive

given smiles	class label
CC[C@@]12CC(C(=O)OC)=C3Nc4ccccc4[C@@]34CCN(C[C@H]3O[C@H]31)[C@@H]24	class 0
COc1ccc2c(c1)c(-c1nc(-c3cn(C)c4ncccc34)cs1)cn2CCCCN1CCCCC1	class 0
COc1ccc(-c2cc(-c3ccc(Cl)cc3)c(C#N)c(=O)n2CCCCCC(=O)Nc2ccccc2N)cc1	class 0
CC1(C)N=C(N)N=C(N)N1c1cccc(CC(=O)Nc2ccccc2)c1	class 0
N#CCC1CCN(c2nc(Nc3ccc(N4CCC(O)CC4)cc3)c3c(=O)[nH]ncc3n2)CC1	class 0
CC(C)CC(=O)O[C@H]1C(=O)O[C@@H]2C[C@H]3[C@H](C)C(=O)C(O[C@@H]4O[C@H](CO)[C@@H](O)[C@H](O)[C@H]4O)=C[C@]3(C)[C@H]3[C@@H](O)[C@H](O)[C@]4(C(=O)O)OC[C@]32[C@@H]14	class 0
O=c1[nH]c2c(ccc3cnccc32)c2c1CCC2	class 1
CCn1nc(C#Cc2c(C)ccc3c(Nc4ccc(Cl)cc4)nccc23)c2c(N)ncnc21	class 0

* * *

Tested on: NCI/ADR-RES ovarian
protocol summary: NCI tumour cell line growth inhibition, 48 h; in the data active means GI50 below about 0.43 µM; inactive means the rest
Possible outcomes: active, inactive

> print(dat)
                                    molecule  class.label
 1      Nc1nc(-c2ccccn2)c(-c2ccc3ncccc3n2)s1     inactive
 2  Cc1ccccc1C1N=C2Oc3ccccc3C=C2C(=O)N1 (stereo not given)     inactive
 3             Cc1n[nH]c(C)c1-c1c(C)n[nH]c1C     inactive
 4  COc1ccc(-c2cc(-c3ccc(Cl)cc3)c(C#N)c(=O)n2CCCCCC(=O)Nc2ccccc2N)cc1     inactive
 5  C=C1C(=O)O[C@H]2[C@H]1CC/C(COC(=O)NCc1ccc(Cn3c(=O)sn(CCCI)c3=O)cc1)=C\CC[C@@]1(C)O[C@@H]21     inactive
 6  CCn1nc(C#Cc2c(C)ccc3c(Nc4ccc(Cl)cc4)nccc23)c2c(N)ncnc21     inactive
 7  CC(C)OC(=O)OCOP(=O)(OCOC(=O)OC(C)C)C1CCCN(O)C1=O (stereo not given)     inactive
 8  CCCN1CCCC(c2ccc(Nc3nc(Nc4cc(F)ccc4C(N)=O)c4cc[nH]c4n3)c(OC)c2)C1 (stereo not given)     inactive
 9  COc1cc(F)c(F)c(F)c1C(=O)c1cnc(NC2CCN(S(C)(=O)=O)CC2)nc1N     inactive
10  N/C(=N\O)c1cn(C2OC(CO)C(O)C2O)c2ncnc(N)c12 (stereo not given)       active
11  CN(C)CCCn1c2c(c3ccc(N4CCNCC4)cc3c1=O)C(=O)c1ccccc1-2     inactive
12  O[C@@H]1CCCCN1Cc1cc2cc3c(cc2c2cc(OCc4ccccc4)ccc12)OCO3     inactive
13  COc1cc(C(=O)N[C@@H]2CCCN(C)C2)ccc1Nc1ncc2c(n1)N(C1CCCC1)CC(C)(C)C(=O)N2C       active
14    Fc1cnccc1-c1nc2ccc3[nH]ncc3c2c2c1CCCC2     inactive
15  CC1(C)CC[C@]2(C(=O)O)CC[C@]3(C)C(=CC[C@@H]4[C@@]5(C)C/C(=C/c6cccnc6)[C@H](O)C(C)(C)[C@@H]5CC[C@]43C)[C@@H]2C1     inactive

* * *

Examples of molecules with documented log10 of TGI follow.
Tested on: UACC-62 melanoma
protocol summary: NCI tumour cell line growth inhibition, 48 h
parameter measured: log10 of TGI (log10 of the value in µM)

molecule	log10 of TGI
CCn1nc(C#Cc2c(C)ccc3c(Nc4ccc(Cl)cc4)nccc23)c2c(N)ncnc21	0.96
COc1cccc(-c2cc(-c3ccc(Nc4nc(Nc5ccc(Cl)cc5)nc(Nc5ccc(Cl)cc5)n4)cc3)nc(N)c2C#N)c1	1.58
COc1ccc(-c2cc(-c3ccc(Cl)cc3)c(C#N)c(=O)n2CCCCCC(=O)Nc2ccccc2N)cc1	0.93
CN(C)CCCn1c2c(c3ccc(N4CCNCC4)cc3c1=O)C(=O)c1ccccc1-2	0.40
O=[N+]([O-])C1=Cc2c(O)ccc(O)c2C2c3ccccc3NC12 (centres undefined)	1.36
CCCN1CCCC(c2ccc(Nc3nc(Nc4cc(F)ccc4C(N)=O)c4cc[nH]c4n3)c(OC)c2)C1 (centres undefined)	0.80
CC(=O)Nc1ccc2c3c(cc(O)c2c1)N(C(=O)CCCCCCC(=O)Nc1ccc2c4c(cc(O)c2c1)N(C(=O)OC(C)(C)C)CC4CCl)CC3CCl (centres undefined)	-0.66
COc1ccc(CC(COS(=O)(=O)c2ccc(C)cc2)NS(=O)(=O)c2ccc(C)cc2)cc1 (centres undefined)	1.64
C/C(=N\NC(N)=S)c1ccc(Oc2ccccc2)cc1	1.46
CC(=O)[O-].O=C([CH-]C(=O)c1ccccc1)c1ccccc1.O=C([CH-]C(=O)c1ccccc1)c1ccccc1.[Dy+3]	1.68
COC1=C(OC)C(=O)c2cc(C)c(=O)c(C)cc2C1=O	1.44
CC(=O)Nc1ccc(S(=O)(=O)N2C(=O)CCC2C(=O)Nc2ccccc2)cc1 (centres undefined)	1.01
CCc1cccc(CC)c1NC1=CC(=O)C(=O)c2ccccc21	1.48
COc1cnc2c(c1)C(=O)c1c-2n(CCCN2CCNCC2)c(=O)c2cc(F)ccc12	0.48
CCN(CC)CCN1C(=O)c2cccc3cc(N)cc(c23)C1=O	1.39
O=c1c2cc(F)ccc2sc2c(NCCCNCCO)nc3ccc(F)cc3c12	0.51
COc1cc(-c2nn(-c3cccc(NC(=O)NCCNC(=O)c4ccccc4)c3)cc2-c2ccncc2)ccc1Cl	1.49
CCN(CC)c1ccc(C=C2C(=O)NC(=S)NC2=O)cc1	0.83
